Subject of test: human TrkA (Homo sapiens)
Construct: purchased Lifetechnologies PV3144
Assay comment: Test Example 2-2: Human TrkA Inhibition Assay
Assay type: biochemical
Stated conditions: human TrkA inhibition, class symbols A/B/C, read-out: IC50_nM
pIC50: −log10 of the molar value.
Here the recorded pIC50 is given for each entry.

Quick check: pIC50 of COCC(COS(C)(=O)=O)[C@@H]1C[C@@H](NC(=O)Nc2c(C)c(-c3cnn(C)c3)nn2-c2ccccc2)[C@H](c2ccccc2)C1 (stereo partly drawn) ?
< 6.00

Proceed to CO[C@@H]1C[C@H](NC(=O)Nc2c(C)c(-c3cnn(C)c3)nn2-c2ccccc2)[C@@H](c2ccccc2)C1 (racemic)
< 6.00

Proceed to COCCC1C[C@@H](NC(=O)Nc2c(C)c(-c3cnn(C)c3)nn2-c2ccccc2)[C@H](c2ccc(F)c(F)c2)N1CC(=O)OC (stereo partly drawn)
< 6.00

Proceed to CCO[C@@H]1C[C@@H](NC(=O)Nc2c(C)c(-c3cnn(C)c3)nn2-c2ccccc2)[C@H](c2ccccc2)C1 (racemic)
< 6.00

Proceed to COCCC1C[C@@H](NC(=O)Nc2cc(-c3ccccc3)nn2C)[C@H](c2ccccc2)N1 (stereo partly drawn)
6.00 to 7.00

Proceed to COCCC1C[C@@H](NC(=O)Nc2c(C)c(-c3cnn(C)c3)nn2-c2ccccc2)[C@H](c2ccc(F)c(F)c2)N1CCOC (stereo partly drawn)
< 6.00

###

Here the recorded IC50 is given for each entry.
Subject of test: human TrkA (Homo sapiens, UniProt P04629)
Construct: purchased Lifetechnologies PV3144
Sequence (P04629 33-796): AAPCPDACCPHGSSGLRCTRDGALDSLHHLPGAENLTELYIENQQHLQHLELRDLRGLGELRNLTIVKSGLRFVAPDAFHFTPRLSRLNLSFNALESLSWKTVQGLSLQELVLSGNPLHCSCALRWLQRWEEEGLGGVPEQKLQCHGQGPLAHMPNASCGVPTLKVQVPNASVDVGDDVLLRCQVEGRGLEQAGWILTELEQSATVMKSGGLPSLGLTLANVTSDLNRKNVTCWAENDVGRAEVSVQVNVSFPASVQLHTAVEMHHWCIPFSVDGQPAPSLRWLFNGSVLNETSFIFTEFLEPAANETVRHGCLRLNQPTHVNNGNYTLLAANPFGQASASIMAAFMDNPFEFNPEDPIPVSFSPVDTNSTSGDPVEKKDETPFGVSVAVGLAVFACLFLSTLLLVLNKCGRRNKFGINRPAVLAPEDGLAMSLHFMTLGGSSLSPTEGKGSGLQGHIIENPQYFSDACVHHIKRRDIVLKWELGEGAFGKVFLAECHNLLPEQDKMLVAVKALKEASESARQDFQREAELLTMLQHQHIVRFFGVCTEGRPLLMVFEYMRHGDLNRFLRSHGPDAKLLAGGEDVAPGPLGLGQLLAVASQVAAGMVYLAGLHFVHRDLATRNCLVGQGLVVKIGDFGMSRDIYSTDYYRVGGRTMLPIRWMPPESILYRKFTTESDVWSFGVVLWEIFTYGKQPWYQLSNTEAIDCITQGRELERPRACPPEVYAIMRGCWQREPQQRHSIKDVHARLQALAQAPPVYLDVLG
Assay comment: Test Example 2: Human TrkA Inhibition Assay
Format: biochemical
Stated conditions: human TrkA inhibition, Test Example 2; class symbols A/B/C; read-out: IC50_nM

Cc1c(-c2cnn(C)c2)nn(-c2ccccc2)c1NC(=O)N[C@@H]1CN(Cc2ccoc2)C[C@H]1c1ccc(F)c(F)c1; 100 to 1000 nM
CCOC(=O)CC1C[C@@H](NC(=O)Nc2c(C)c(-c3cnn(C)c3)nn2-c2ccccc2)[C@H](c2ccccc2)C1 (stereo partly drawn); 100 to 1000 nM
Cc1c(-c2cnn(C)c2)nn(-c2ccccc2)c1NC(=O)N[C@@H]1CN(C2CCCC2)C[C@H]1c1ccc(F)c(F)c1; > 1000 nM
Cc1c(-c2cnn(C)c2)nn(-c2ccccc2)c1NC(=O)N[C@@H]1CN(C(CO)c2ccco2)C[C@H]1c1ccc(F)c(F)c1 (stereo partly drawn); < 100 nM
COCCN1C[C@@H](NC(=O)Nc2c(C)c(-c3cnn(C)c3)nn2-c2ccccc2)[C@H](c2ccc3c(c2)OCCO3)C1 (racemic); 100 to 1000 nM
COCCN1C[C@@H](NC(=O)Nc2c(C)c(-c3cnn(C)c3)nn2-c2ccccc2)[C@H](c2cccc(-c3ccccc3)c2)C1 (racemic); < 100 nM

Quick check: IC50 of COCCN1C[C@@H](NC(=O)Nc2c(C)c(OCC(C)(C)O)nn2-c2ccccc2)[C@H](C2CCC(F)(F)CC2)C1 (racemic) ?
> 1000 nM

Proceed to Cc1c(-c2cnn(C)c2)nn(-c2ccccc2)c1NC(=O)N[C@@H]1CN(C2CCOC2)C[C@H]1c1ccc(F)c(F)c1 (stereo partly drawn)
> 1000 nM

Proceed to C=C1C[C@@H](NC(=O)Nc2c(C)c(-c3cnn(C)c3)nn2-c2ccccc2)[C@H](c2ccc(F)cc2)C1 (racemic)
< 100 nM

Proceed to COCCN1C[C@@H](NC(=O)Nc2c(C)c(-c3cnn(C)c3)nn2-c2ccccc2)[C@H](c2cccc(C(N)=O)c2)C1 (racemic)
> 1000 nM

Proceed to COCCN1C[C@@H](NC(=O)Nc2c(C)c(-c3cnn(C)c3)nn2-c2ccccc2)[C@H](c2cccc(-c3ccc(C#N)cc3)c2)C1 (racemic)
< 100 nM

Proceed to COCCN1C[C@@H](NC(=O)Nc2c(C)c(-c3cnn(C)c3)nn2-c2ccccc2)[C@H](C2CCC(F)(F)CC2)C1 (racemic)
100 to 1000 nM

###

Subject of test: human TrkA (Homo sapiens, UniProt P04629)
Construct: purchased Lifetechnologies PV3144
Assay comment: Test Example 2: Human TrkA Inhibition Assay
Assay type: biochemical
Stated conditions: Test Example 2; human TrkA 2.5 nmol/L, ATP 500 μmol/L, 90 min at room temperature; read-out: TrkA inhibitory activity IC50
Measured quantity: IC50 (µM)

CC=C1C[C@@H](NC(=O)Nc2c(C)c(-c3cnn(C)c3)nn2-c2ccccc2)[C@H](c2ccccc2)C1 [Compound I-102]; 0.043
COCC[C@@H]1C[C@@H](NC(=O)Nc2c(C)c(-c3cnn(C)c3)nn2-c2ccccc2)[C@H](c2ccccc2)C1 [Compound I-84]; 0.00072
Cc1c(-c2cnn(C)c2)nn(-c2ccccc2)c1NC(=O)N[C@@H]1CN(CCOCC(F)(F)F)C[C@H]1c1ccc(F)c(F)c1 [Compound I-22]; 0.035
COCC(Cn1cccn1)N1C[C@@H](NC(=O)Nc2c(C)c(-c3cnn(C)c3)nn2-c2ccccc2)[C@H](c2ccc(F)c(F)c2)C1 (stereo partly drawn) [Compound I-100]; 0.034

a. COCCC1C[C@@H](NC(=O)Nc2c(C)c(-c3cnn(C)c3)nn2-c2ccccc2)[C@H](c2ccc(F)c(F)c2)N1C (stereo partly drawn) [Compound I-87]
b. CNC(=O)C(COC)N1C[C@@H](NC(=O)Nc2c(C)c(-c3cnn(C)c3)nn2-c2ccccc2)[C@H](c2ccc(F)c(F)c2)C1 (stereo partly drawn) [Compound I-109]
Return label of the item with the larger IC50. Candidates: a , b . State your choice using its label.
b

1. Cc1c(-c2cnn(C)c2)nn(-c2ccccc2)c1NC(=O)N[C@@H]1CC(=O)C[C@H]1c1ccccc1 (racemic) [Compound I-161]
2. COCC[N+]1([O-])C[C@@H](NC(=O)Nc2c(C)c(-c3cnn(C)c3)nn2-c2ccccc2)[C@H](c2ccc(F)c(F)c2)C1 (stereo partly drawn) [Compound I-3]
Which value of IC50 is smaller, the one for 1 or the one for 2 ? State your choice using its label.
2

A. Cc1c(-c2cnn(C)c2)nn(-c2ccccc2)c1NC(=O)N[C@@H]1CN(CC2(C)COC2)C[C@H]1c1ccc(F)c(F)c1 [Compound I-142]
B. Cc1c(-c2cnn(C)c2)nn(-c2ccccc2)c1NC(=O)N[C@@H]1CC2(CC(=O)C2)C[C@H]1c1ccccc1 (racemic) [Compound I-157]
Which value of IC50 is smaller, the one for A or the one for B ? State your choice using its label.
A
(A: 1.3 µM, B: 3.3 µM)

A. Cc1c(-c2cnn(C)c2)nn(-c2ccccc2)c1NC(=O)N[C@@H]1CC(O)C[C@H]1c1ccccc1 (stereo partly drawn) [Compound I-168]
B. Cc1c(-c2cnn(C)c2)nn(-c2ccccc2)c1NC(=O)N[C@@H]1CN(CC(F)(F)F)C(=O)[C@H]1c1ccccc1 (racemic) [Compound I-44]
Return label of the item with the larger IC50. Candidates: A , B . State your choice using its label.
A
(A: 7 µM, B: 0.7 µM)

###

Subject of test: human TrkA (Homo sapiens, UniProt P04629)
Construct: purchased Lifetechnologies PV3144
Assay comment: Test Example 2: Human TrkA Inhibition Assay
Assay type: biochemical
Stated conditions: Test Example 2; human TrkA 2.5 nmol/L, ATP 500 μmol/L, 90 min at room temperature; read-out: TrkA inhibitory activity IC50
pIC50: −log10 of the molar value.
Measured quantity: pIC50

COCC(CSC)N1C[C@@H](NC(=O)Nc2c(C)c(-c3cnn(C)c3)nn2-c2ccccc2)[C@H](c2ccc(F)c(F)c2)C1 (stereo partly shown); 6.34
COCCC1(C)C[C@@H](NC(=O)Nc2c(C)c(-c3cnn(C)c3)nn2-c2ccccc2)[C@H](c2ccccc2)C1 (stereo partly shown); 6.32
COCCN1C[C@@H](NC(=NO)Nc2c(C)c(-c3cnn(C)c3)nn2-c2ccccc2)[C@H](c2ccccc2)C1; 6.36
COCCN1C[C@@H](NC(=O)Cc2c(C)c(-c3cnn(C)c3)nn2-c2ccccc2)[C@H](c2ccc(F)c(F)c2)C1; 7.59
COCCN1C[C@@H](OC(=O)Nc2c(C)c(-c3cnn(C)c3)nn2-c2ccccc2)[C@H](c2ccc(F)c(F)c2)C1 (racemic); 7.08

1. COCC(CC#N)N1C[C@@H](NC(=O)Nc2c(C)c(-c3cnn(C)c3)nn2-c2ccccc2)[C@H](c2ccc(F)c(F)c2)C1 (stereo partly shown)
2. COCC(CN1CC(F)(F)C1)N1C[C@@H](NC(=O)Nc2c(C)c(-c3cnn(C)c3)nn2-c2ccccc2)[C@H](c2ccc(F)c(F)c2)C1 (stereo partly shown)
3. COCCN1C[C@@H](NC(=NS(C)(=O)=O)Nc2c(C)c(-c3cnn(C)c3)nn2-c2ccccc2)[C@H](c2ccccc2)C1
4. Cc1c(-c2cnn(C)c2)nn(-c2ccccc2)c1NC(=O)N[C@@H]1CN(Cc2ccco2)C[C@H]1c1ccc(F)c(F)c1
5. COCCC1C[C@@H](NC(=O)Nc2c(C)c(-c3cnn(C)c3)nn2-c2ccccc2)[C@H](c2ccc(F)c(F)c2)N1 (stereo partly shown)
Arrange the 5 compounds by rising pIC50, starting with the smallest. Write the labels, ordered according to the request.
3, 2, 1, 5, 4

1. COCCN1C[C@@H](NC(=O)Nc2c(C)c(-c3cnn(C)c3)nn2-c2ccccc2)[C@H](c2ccc3c(c2)OCO3)C1 (racemic)
2. COC1CCC1N1C[C@@H](NC(=O)Nc2c(C)c(-c3cnn(C)c3)nn2-c2ccccc2)[C@H](c2ccc(F)c(F)c2)C1 (stereo partly shown)
Which value of pIC50 is smaller, the one for 1 or the one for 2 ? State your choice using its label.
2
(2: 6.92, 1: 7.66)
